Target: human cloned CHRM3 receptor (Homo sapiens)
Construct: expressed in transfected cells; host or cells: CHO-K1 (M3_CHO)
Sequence (P20309 whole entry): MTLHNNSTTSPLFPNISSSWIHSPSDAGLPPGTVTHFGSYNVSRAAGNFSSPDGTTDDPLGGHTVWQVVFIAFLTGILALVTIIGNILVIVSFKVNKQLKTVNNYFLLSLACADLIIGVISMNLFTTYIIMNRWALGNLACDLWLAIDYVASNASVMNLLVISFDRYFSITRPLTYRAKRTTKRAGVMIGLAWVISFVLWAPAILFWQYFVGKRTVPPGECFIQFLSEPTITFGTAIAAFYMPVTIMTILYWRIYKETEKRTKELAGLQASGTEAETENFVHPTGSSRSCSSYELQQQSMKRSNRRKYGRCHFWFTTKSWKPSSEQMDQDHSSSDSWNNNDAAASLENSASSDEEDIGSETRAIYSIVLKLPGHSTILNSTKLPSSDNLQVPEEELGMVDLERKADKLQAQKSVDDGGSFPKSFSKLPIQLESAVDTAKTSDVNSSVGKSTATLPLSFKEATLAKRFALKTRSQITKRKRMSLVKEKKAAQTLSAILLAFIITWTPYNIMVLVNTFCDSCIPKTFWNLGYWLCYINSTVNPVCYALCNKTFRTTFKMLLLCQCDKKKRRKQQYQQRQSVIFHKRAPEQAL
Experiment: CHRM3 Ca++ Flux Assay (M3_CHO cells, agonist mode)
Assay type: cell-based
Conditions: Percent Activity (PA) measured to EC100 of Carbachol
endpoint.label: M3 FDSS PA % (%)
Give a bare numeral; the unit % is implied.

Query (compound): c1ccc([C@@H]2CCOC2)c(C2CCN([C@@H]3COC4(C3)CN(c3nnco3)C4)CC2)c1 (single isomer, unassigned) [Example 3A] ; field requested: M3 FDSS PA %
0

Form field: reported M3 FDSS PA % of Fc1ccc(O[C@H]2CCCOC2)c(C2CCN([C@@H]3COC4(C3)CN(c3nnco3)C4)CC2)c1 (single isomer, unassigned) [Example 2R]
0

Quick one: M3 FDSS PA % for O[C@H]1CC[C@@H](c2ccc(F)cc2C2CCN([C@@H]3COC4(C3)CN(c3nnco3)C4)CC2)CC1 (single isomer, unassigned) [Example 3I] ?
0
